assay: LNP encapsulation efficiency, RiboGreen assay; format: physicochemical; conditions: mRNA LNPs of Table 18
Assign Encapsulation efficiency to each entry below.
Give bare numbers, in %.

Specify reported Encapsulation efficiency for the molecule shown: ARK001: mRNA: SP + WP_004031278.1 (Methanobacterium formicicum) + TM/C; SEQ ID NO: 16676 (nucleic acid, listed as DNA) ATGTTCGTGTTCCTCGTGCTCCTGCCCCTCGTCTCCAGCCAGTGCGTGTACCTCATGACACTGAGCCTGCCAGGGTTCGCACATCCCTTCGCACTCCCCCCCTGGTACATCTGGCTGGGCTTCATCGCAGGACTGATCGCCATCGTCATGGTCACCATAATGCTCTGTTGCATGACCTCCTGCTGTAGCTGCCTGAAAGGCTGTTGCAGCTGCGGGAGCTGCTGCAAATTCGACGAAGACGATAGCGAACCTGTGCTCAAAGGGGTGAAGTTGCATTACACATAGTGA
51

Please look at this molecule and report its Encapsulation efficiency: ARK004: mRNA: SP + WP_016359091.1 (Methanobrevibacter sp. AbM4) + TM/C; SEQ ID NO: 16679 (nucleic acid, listed as DNA) ATGTTCGTGTTCCTCGTGCTCCTGCCCCTCGTCTCCAGCCAGTGCGTGTACCTGATGATAATCCCAATCAACGGGAGTGCACTCCACATCTTCCCCCTCCCGCCCTGGTACATCTGGCTGGGCTTCATCGCAGGACTGATCGCCATCGTCATGGTCACCATAATGCTCTGTTGCATGACCTCCTGCTGTAGCTGCCTGAAAGGCTGTTGCAGCTGCGGGAGCTGCTGCAAATTCGACGAAGACGATAGCGAACCTGTGCTCAAAGGGGTGAAGTTGCATTACACATAGTGA
51

Look up and report measured Encapsulation efficiency for this entry: ARK005: mRNA: SP + WP_011033493.1 (Methanosarcina mazei) + TM/C; SEQ ID NO: 16680 (nucleic acid, listed as DNA) ATGTTCGTGTTCCTCGTGCTCCTGCCCCTCGTCTCCAGCCAGTGCGTGTACCTCATGACGGTGGTGCTCGGACACCCATTCCCGCTGACACCCTGGTACATCTGGCTGGGCTTCATCGCAGGACTGATCGCCATCGTCATGGTCACCATAATGCTCTGTTGCATGACCTCCTGCTGTAGCTGCCTGAAAGGCTGTTGCAGCTGCGGGAGCTGCTGCAAATTCGACGAAGACGATAGCGAACCTGTGCTCAAAGGGGTGAAGTTGCATTACACATAGTGA
56

---
Identify Encapsulation efficiency associated with the molecule ARK002: mRNA: SP + WP_012956721.1 (Methanobrevibacter ruminantium) + TM/C; SEQ ID NO: 16677 (nucleic acid, listed as DNA) ATGTTCGTGTTCCTCGTGCTCCTGCCCCTCGTCTCCAGCCAGTGCGTGTACCTCATGACACTCCCCCTGGACGGACTCGGGCACCCCTTCCCCCTGCCACCCTGGTACATCTGGCTGGGCTTCATCGCAGGACTGATCGCCATCGTCATGGTCACCATAATGCTCTGTTGCATGACCTCCTGCTGTAGCTGCCTGAAAGGCTGTTGCAGCTGCGGGAGCTGCTGCAAATTCGACGAAGACGATAGCGAACCTGTGCTCAAAGGGGTGAAGTTGCATTACACATAGTGA
51
